Where do these numbers come from? They come from patent US7119073B2.

target: full length NS3 protein noncovalently complexed with the full-length NS4A cofactor protein (NS3/NS4A complex) (Hepatitis C virus genotype 1b); construct: full length NS3 protein spanning residues 1027–1657 of the HCV polyprotein; assay: Full-length NS3-NS4A heterodimer protein assay (Assay A); format: biochemical, hepatitis C virus (HCV); details: Table 6; full-length NS3/NS4A; read-out: Assay A

{"molecule": "CC(C)[C@H](O)C(=O)N1C[C@H](OCCCc2ccccc2)CC1C(=O)N[C@@H](CC(F)F)C(=O)NCCc1c(F)cc(C(=O)O)cc1F (stereo partly shown)", "IC50": "< 100 µM"}

====

Reported pIC50 values are given for each entry in this list.
Target: full length NS3 protein noncovalently complexed with the full-length NS4A cofactor protein (NS3/NS4A complex) (Hepatitis C virus genotype 1b, UniProt P26663)
Construct: full length NS3 protein spanning residues 1027–1657 of the HCV polyprotein
Sequence (P26663 1027-1657): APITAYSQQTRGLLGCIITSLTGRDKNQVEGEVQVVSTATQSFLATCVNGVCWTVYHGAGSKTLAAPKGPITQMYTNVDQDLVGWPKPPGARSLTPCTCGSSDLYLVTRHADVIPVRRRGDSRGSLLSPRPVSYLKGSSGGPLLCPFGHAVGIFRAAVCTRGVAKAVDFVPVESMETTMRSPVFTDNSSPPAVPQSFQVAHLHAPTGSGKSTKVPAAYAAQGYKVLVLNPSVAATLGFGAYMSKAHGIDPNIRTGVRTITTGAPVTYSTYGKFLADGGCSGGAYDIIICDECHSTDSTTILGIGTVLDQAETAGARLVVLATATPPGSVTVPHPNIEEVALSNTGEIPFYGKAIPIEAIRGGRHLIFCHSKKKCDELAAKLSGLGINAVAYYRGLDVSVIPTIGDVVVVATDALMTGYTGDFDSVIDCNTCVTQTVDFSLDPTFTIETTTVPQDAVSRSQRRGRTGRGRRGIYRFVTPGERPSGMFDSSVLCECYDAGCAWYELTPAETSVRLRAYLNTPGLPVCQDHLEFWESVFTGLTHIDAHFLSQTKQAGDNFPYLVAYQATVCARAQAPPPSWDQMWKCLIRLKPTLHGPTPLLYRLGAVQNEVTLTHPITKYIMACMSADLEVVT
Sequence (P26663 1658-1711): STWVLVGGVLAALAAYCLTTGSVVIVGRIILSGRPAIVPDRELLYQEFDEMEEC
Test: Full-length NS3-NS4A heterodimer protein assay (Assay A)
Type: biochemical, hepatitis C virus (HCV)
Details: Table 1; full-length NS3/NS4A, NS5A-NS5B peptide substrate; read-out: Assay A
Experimental: Full-Length NS3-NS4A Heterodimer Protein Assay (Assay A) […] In this assay the full length NS3 protein spanning residues 1027–1657 of the HCV polyprotein, noncovalently complexed with the full-length NS4A cofactor protein (residues 1658–1711) was used. […] Cleavage was determined by HPLC using a Merck-Hitachi chromatograph equipped with an autosampler. […] Peak detection was done by monitoring both the absorbance at 220 nm and tryptophan fluorescence (λex=280 nm, λem=350 nm). […]
pIC50: −log10 of the molar value.

{"compound": "CC(C)COC(=O)NC(C(=O)NC(CC(C)C)C(=O)NC(CC(F)F)C(=O)NCCc1ccccc1CCC(=O)O)C(C)C (centres unmarked)", "pIC50": "> 4.00"}
{"compound": "CC(C)COC(=O)NC(CCC(=O)O)C(=O)NC(CC(C)C)C(=O)NC(CC(F)F)C(=O)NCCc1ccc(C(=O)O)cc1Cl (centres unmarked)", "pIC50": "> 5.00"}

====

molecular target: full length NS3 protein noncovalently complexed with the full-length NS4A cofactor protein (NS3/NS4A complex) (Hepatitis C virus genotype 1b, UniProt P26663); construct: full length NS3 protein spanning residues 1027–1657 of the HCV polyprotein; assay: Full-length NS3-NS4A heterodimer protein assay (Assay A); type: biochemical, hepatitis C virus (HCV); conditions: Table 5; full-length NS3/NS4A; read-out: AssayA
pIC50: −log10 of the molar value.

{"compound": "CC(C)[C@H](NC(=O)OCC1CC1)C(=O)N1C[C@H](C2CCCCC2)C[C@H]1C(=O)N[C@@H](CC(F)F)C(=O)NCCc1c(F)cc(C(=O)O)cc1F [Compound 540]", "pIC50": "> 6.00"}
{"compound": "CC(C)COC(=O)N[C@H](C(=O)N1C[C@@H](OCc2ccccc2)C[C@H]1C(=O)N[C@@H](CC(F)F)C(=O)NCCc1c(F)cc(C(=O)O)cc1F)C(C)C [Compound 527]", "pIC50": "> 5.00"}
{"compound": "CC(C)COC(=O)N[C@@H](CCC(=O)O)C(=O)N1C[C@H](c2ccccc2)C[C@H]1C(=O)N[C@@H](CS)C(=O)NCCc1ccccc1Br [Compound 508]", "pIC50": "> 4.00"}
{"compound": "CC(C)COC(=O)N[C@H](C(=O)N1C[C@H](c2ccccc2)C[C@H]1C(=O)N[C@@H](CC(F)F)C(=O)NCCc1cc(OC(C(=O)O)c2cccc(Cl)c2)ccc1Cl)C(C)C (mixture of isomers) [Compound 571]", "pIC50": "> 5.00"}
{"compound": "CC(C)COC(=O)N[C@@H](CCC(=O)O)C(=O)N1C[C@H](c2ccccc2)C[C@H]1C(=O)N[C@@H](CC(F)F)C(=O)NCCC1=CCCCC1 [Compound 511]", "pIC50": "> 4.00"}
{"compound": "CC(C)COC(=O)N[C@H](C(=O)N1C[C@H](SCc2ccccc2)C[C@H]1C(=O)N[C@@H](CC(F)F)C(=O)NCCc1c(F)cc(C(=O)O)cc1F)C(C)C [Compound 544]", "pIC50": "> 5.00"}
{"compound": "CCOC(=O)/C=C/c1cccc(CCNC(=O)[C@H](CC(F)F)NC(=O)[C@@H]2C[C@@H](c3ccccc3)CN2C(=O)[C@@H](NC(=O)OCC(C)C)C(C)C)c1 [Compound 559]", "pIC50": "> 4.00"}
{"compound": "CC(C)COC(=O)N[C@H](C(=O)N1C[C@H](OCc2ccccc2)CC1C(=O)N[C@@H](CC(F)F)C(=O)NCCc1c(F)cc(C(=O)O)cc1F)C(C)C (stereo partly drawn) [Compound 526]", "pIC50": "> 6.00"}
{"compound": "CC(C)COC(=O)N[C@H](C(=O)N1C[C@H](C2CCCCC2)C[C@H]1C(=O)N[C@@H](CC(F)F)C(=O)NCCc1c(F)cc(C(=O)O)cc1F)C(C)(C)C [Compound 536]", "pIC50": "> 5.00"}
{"compound": "CC(C)COC(=O)NC(C(=O)N1CCCC1C(=O)NC(CC(F)F)C(=O)NCCc1c(F)cc(C(=O)O)cc1F)C(C)C (stereo not drawn) [Compound 502]", "pIC50": "> 5.00"}
{"compound": "CCC[S+]([O-])[C@@H]1C[C@@H](C(=O)N[C@@H](CC(F)F)C(=O)NCCc2c(F)cc(C(=O)O)cc2F)N(C(=O)[C@@H](NC(=O)OCC(C)C)C(C)C)C1 (stereo partly drawn) [Compound 549]", "pIC50": "> 5.00"}
{"compound": "CC(C)COC(=O)N[C@H](C(=O)N1C[C@H](c2ccccc2)C[C@H]1C(=O)N[C@@H](CC(F)F)C(=O)NCCc1cc(/C=C/C(=O)O)ccc1F)C(C)C [Compound 561]", "pIC50": "> 6.00"}
{"compound": "CC(C)COC(=O)N[C@H](C(=O)N1C[C@H](C2CCCCC2)C[C@H]1C(=O)N[C@@H](CC(F)F)C(=O)NCCc1c(F)cc(C(=O)O)cc1F)C1CCCC1 [Compound 538]", "pIC50": "> 6.00"}
{"compound": "CC(C)COC(=O)N[C@H](C(=O)N1C[C@H](S(=O)(=O)C2CCCCC2)C[C@H]1C(=O)N[C@@H](CC(F)F)C(=O)NCCc1c(F)cc(C(=O)O)cc1F)C(C)C [Compound 553]", "pIC50": "> 6.00"}
{"compound": "CC(C)COC(=O)N[C@H](C(=O)N1C[C@H](c2ccccc2)C[C@H]1C(=O)N[C@@H](CC(F)F)C(=O)NCCc1cccc(OCC(=O)O)c1)C(C)C [Compound 562]", "pIC50": "> 4.00"}
{"compound": "CC(C)COC(=O)N[C@@H](CCC(=O)O)C(=O)N1C[C@H](c2ccccc2)C[C@H]1C(=O)N[C@@H](CC(F)F)C(=O)NCCc1ccccc1-c1ccccc1 [Compound 510]", "pIC50": "> 5.00"}
{"compound": "CC(C)COC(=O)N[C@H](C(=O)N1C[C@H](C2CCCCC2)C[C@H]1C(=O)N[C@@H](CC(F)F)C(=O)NCCc1c(F)cc(C(=O)O)cc1F)C(C)C [Compound 528]", "pIC50": "> 6.00"}
{"compound": "COc1ccc2c(O[C@@H]3C[C@@H](C(=O)N[C@@H](CC(F)F)C(=O)NCCc4c(F)cc(C(=O)O)cc4F)N(C(=O)[C@@H](NC(=O)OC(C)(C)C)C(C)(C)C)C3)cc(-c3ccccc3)nc2c1 [Compound 576]", "pIC50": "> 6.00"}
{"compound": "CC(C)COC(=O)N[C@H](C(=O)N1C[C@H](c2ccccc2)C[C@H]1C(=O)N[C@@H](CC(F)F)C(=O)NCCc1cccc(/C=C/C(=O)O)c1)C(C)C [Compound 558]", "pIC50": "> 5.00"}
{"compound": "CC(C)COC(=O)N[C@H](C(=O)N1C[C@H](c2ccccc2)C[C@H]1C(=O)N[C@@H](CC(F)F)C(=O)NCCc1[nH]c2ccccc2c1CCC(=O)O)C(C)C [Compound 572]", "pIC50": "> 4.00"}
{"compound": "CCCS(=O)(=O)[C@@H]1C[C@@H](C(=O)N[C@@H](CC(F)F)C(=O)NCCc2c(F)cc(C(=O)O)cc2F)N(C(=O)[C@@H](NC(=O)OCC(C)C)C(C)C)C1 [Compound 550]", "pIC50": "> 6.00"}

====

molecular target: full length NS3 protein noncovalently complexed with the full-length NS4A cofactor protein (NS3/NS4A complex) (Hepatitis C virus genotype 1b); construct: full length NS3 protein spanning residues 1027–1657 of the HCV polyprotein; test: Full-length NS3-NS4A heterodimer protein assay (Assay A); assay type: biochemical, hepatitis C virus (HCV); settings: Table 5; full-length NS3/NS4A; read-out: AssayA
outcome-measure: IC50

{"molecule": "CC[C@@H](C)[C@H](NC(=O)OCC(C)C)C(=O)N1C[C@H](C2CCCCC2)C[C@H]1C(=O)N[C@@H](CC(F)F)C(=O)NCCc1c(F)cc(C(=O)O)cc1F [Compound 535]", "assay-value": "< 1000 nM"}
{"molecule": "CCC(Oc1ccc(F)c(CCNC(=O)[C@H](CC(F)F)NC(=O)[C@@H]2C[C@@H](C3CCCCC3)CN2C(=O)[C@@H](NC(=O)OCC(C)C)C(C)C)c1F)C(=O)O (mixture of isomers) [Compound 568]", "assay-value": "< 1000 nM"}
{"molecule": "CC(C)COC(=O)N[C@H](C(=O)N1C[C@H](c2ccccc2)C[C@H]1C(=O)N[C@@H](CC(F)F)C(=O)NCCc1cccc(OC(C(=O)O)c2ccc(Br)cc2)c1)C(C)C (mixture of isomers) [Compound 570]", "assay-value": "< 1000 nM"}
{"molecule": "CC(C)COC(=O)N[C@@H](CCC(=O)O)C(=O)N1C[C@H](O)C[C@H]1C(=O)N[C@@H](CS)C(=O)NCCc1ccccc1Cl [Compound 503]", "assay-value": "< 100000 nM"}
{"molecule": "CC(C)COC(=O)N[C@H](C(=O)N1C[C@H](c2ccccc2)C[C@H]1C(=O)N[C@@H](CC(F)F)C(=O)NCCc1cccc(/C=C/C(=O)O)c1F)C(C)C [Compound 560]", "assay-value": "< 1000 nM"}
